Provenance of the data: patent US11691962B2

PROCEDURE_SUMMARY: Caco-2 cell permeability assay
Format: in vitro ADME, human
RECORDED_CONDITIONS: human, Caco-2, apical to basolateral, 60 min, 37° C.
Some compounds, each annotated with its measured Papp A→B at 60 min, 10 μM.

COMPOUND	Papp A→B at 60 min, 10 μM
CC[C@@H](NC(=O)N1C(=O)[C@H](Cc2ccnc(N)c2)[C@H]1C(=O)N(C)c1cnn(C)c1)c1ccc(C)nc1 [Compound 1-18]	< 10 ×10⁻⁶ cm/s
CC[C@@H](NC(=O)N1C(=O)[C@H](Cc2cc(C)nc(N)c2)[C@H]1C(=O)N(C)c1ccn(C)n1)c1cccc(Cl)c1 [Compound 1-89]	< 10 ×10⁻⁶ cm/s
CC[C@@H](NC(=O)N1C(=O)[C@H](Cc2ccnc(NC)c2)[C@H]1C(=O)N(C)c1nccn1C)c1cccc(Cl)c1 [Compound 1-41]	< 10 ×10⁻⁶ cm/s

---

Some compounds, each annotated with its measured Papp B→A at 40 min, 10 μM.
PROCEDURE_SUMMARY: Caco-2 cell permeability assay
Assay type: in vitro ADME, human
RECORDED_CONDITIONS: human, Caco-2, basolateral to apical, 40 min, 37° C.
REPORTED_PROPERTY: Papp B→A at 40 min, 10 μM

SMILES_REPRESENTATION	REPORTED_PROPERTY	VALUE_REPORTED
CC[C@@H](NC(=O)N1C(=O)[C@H](Cc2cc(C)nc(N)c2)[C@H]1C(=O)N(C)c1cnn(C)c1)c1cccc(Cl)c1	Papp B→A at 40 min, 10 μM	11 to 30 ×10⁻⁶ cm/s
CC[C@@H](NC(=O)N1C(=O)[C@H](Cc2ccnc(N)c2)[C@H]1C(=O)N(C)c1cn(C)cn1)c1ccccc1	Papp B→A at 40 min, 10 μM	11 to 30 ×10⁻⁶ cm/s
CC[C@@H](NC(=O)N1C(=O)[C@H](Cc2cc(C)nc(N)c2)[C@H]1C(=O)N(C)c1ccn(C)n1)c1cccc(Cl)c1	Papp B→A at 40 min, 10 μM	11 to 30 ×10⁻⁶ cm/s
CN(C(=O)[C@@H]1[C@@H](Cc2ccnc(N)c2)C(=O)N1C(=O)N[C@@H](C1CCCCC1)C(F)(F)F)c1ccn(C)n1	Papp B→A at 40 min, 10 μM	11 to 30 ×10⁻⁶ cm/s
CC[C@@H](NC(=O)N1C(=O)[C@H](Cc2ccnc(N)c2)[C@H]1C(=O)N(C)c1ccn(C)n1)C1CCCCC1	Papp B→A at 40 min, 10 μM	31 to 50 ×10⁻⁶ cm/s
CC[C@@H](NC(=O)N1C(=O)[C@H](Cc2ccnc(N)c2)[C@H]1C(=O)N(C)c1nccn1C)c1cccc(Cl)c1	Papp B→A at 40 min, 10 μM	31 to 50 ×10⁻⁶ cm/s

---

Here we list compounds with their recorded IC50 when tested on Factor XIa (Homo sapiens (Human), UniProt P03951).
Sequence (P03951 388-625): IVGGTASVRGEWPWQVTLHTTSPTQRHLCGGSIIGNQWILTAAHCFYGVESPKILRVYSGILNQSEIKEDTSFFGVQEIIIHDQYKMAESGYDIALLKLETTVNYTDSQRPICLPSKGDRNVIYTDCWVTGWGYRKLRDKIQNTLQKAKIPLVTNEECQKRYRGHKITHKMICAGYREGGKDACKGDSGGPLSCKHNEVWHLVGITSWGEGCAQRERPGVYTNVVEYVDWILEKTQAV
Sequence (P03951 19-387 partner): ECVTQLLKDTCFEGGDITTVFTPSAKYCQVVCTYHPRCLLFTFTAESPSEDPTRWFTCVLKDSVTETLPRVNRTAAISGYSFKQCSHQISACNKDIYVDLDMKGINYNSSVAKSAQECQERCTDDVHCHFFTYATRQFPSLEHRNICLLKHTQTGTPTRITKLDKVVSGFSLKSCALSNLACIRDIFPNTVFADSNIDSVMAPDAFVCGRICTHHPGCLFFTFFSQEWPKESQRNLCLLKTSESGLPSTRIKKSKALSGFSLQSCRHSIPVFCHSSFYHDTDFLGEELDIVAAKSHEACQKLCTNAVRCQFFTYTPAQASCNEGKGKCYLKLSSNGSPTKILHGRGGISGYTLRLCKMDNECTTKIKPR
REPORTED_PROPERTY: IC50

SMILES_REPRESENTATION	VALUE_REPORTED
CC[C@@H](NC(=O)N1C(=O)[C@H](Cc2ccnc(N)c2)[C@H]1C(=O)N(C)c1ccsc1)c1ccccc1	< 10 nM
CC[C@@H](NC(=O)N1C(=O)[C@H](Cc2ccnc(N)c2)[C@H]1C(=O)N(C)c1ccn(C)n1)c1ccccc1F	10 to 100 nM
CC[C@@H](NC(=O)N1C(=O)[C@H](Cc2ccnc(N)c2)[C@H]1C(=O)N(C)c1ccnn1C)C1CCCCC1	< 10 nM
CN(C(=O)[C@@H]1[C@@H](Cc2ccnc(N)c2)C(=O)N1C(=O)NCc1cccc(F)c1)c1cn(C)cn1	100 to 1000 nM
CC[C@@H](NC(=O)N1C(=O)[C@H](Cc2ccnc(N)c2)[C@H]1C(=O)N(C)c1nncn1C)c1ccccc1	10 to 100 nM
CC[C@@H](NC(=O)N1C(=O)[C@H](Cc2ccnc(N)c2)[C@H]1C(=O)N(C)c1nccn1C)c1ccc(C)nc1	10 to 100 nM
CC[C@@H](NC(=O)N1C(=O)[C@H](Cc2cc(C)nc(N)c2)[C@H]1C(=O)N(C)c1ccn(C)n1)c1cc(C)ccc1F	< 10 nM

---

MEASUREMENT_TARGET: Thrombin (Homo sapiens (Human), UniProt P00734)
PROCEDURE_SUMMARY: Dose response assay for protease inhibitors: thrombin
Assay type: biochemical
RECORDED_CONDITIONS: selectivity, thrombin over Factor XIa
Description: […]
REPORTED_PROPERTY: Ratio: Thrombin/FXIa

SMILES_REPRESENTATION	REPORTED_PROPERTY	VALUE_REPORTED
CC[C@@H](NC(=O)N1C(=O)[C@H](Cc2cc(C)nc(N)c2)[C@H]1C(=O)N(C)c1ccnn1C)c1cc(F)ccc1F	Ratio: Thrombin/FXIa	I (“I” indicates > 500)
CC[C@@H](NC(=O)N1C(=O)[C@H](Cc2ccnc(N)c2)[C@H]1C(=O)N(C)c1ccnn1C)C1CCCCC1	Ratio: Thrombin/FXIa	I (“I” indicates > 500)
CC[C@@H](NC(=O)N1C(=O)[C@H](Cc2cc(C)nc(N)c2)[C@H]1C(=O)N(C)c1ccnn1C)c1ccc(C)c(F)c1	Ratio: Thrombin/FXIa	I (“I” indicates > 500)
CC[C@@H](NC(=O)N1C(=O)[C@H](Cc2cc(C)nc(N)c2)[C@H]1C(=O)N(C)c1cn(C)cn1)c1ccccc1	Ratio: Thrombin/FXIa	G (“G” indicates 1-100)
CN(C(=O)[C@@H]1[C@@H](Cc2ccnc(N)c2)C(=O)N1C(=O)NCc1cccc(Cl)c1)c1ccn(C)n1	Ratio: Thrombin/FXIa	G (“G” indicates 1-100)
CC[C@@H](NC(=O)N1C(=O)[C@H](Cc2cc(C)nc(NC)c2)[C@H]1C(=O)N(C)c1cn(C)cn1)c1ccccc1	Ratio: Thrombin/FXIa	G (“G” indicates 1-100)
CC[C@@H](NC(=O)N1C(=O)[C@H](Cc2ccnc(N)c2)[C@H]1C(=O)N(C)c1ccn(C)n1)c1cc(F)c(F)c(F)c1	Ratio: Thrombin/FXIa	I (“I” indicates > 500)

---

PROCEDURE_SUMMARY: Plasma protein binding by equilibrium dialysis
Type: in vitro ADME
RECORDED_CONDITIONS: both sexes, pH 7.4, pooled human plasma, 4 hours at 37° C., read-out: PPB (%)
Procedure: The following procedure was used to determine the plasma protein binding of a test compound in pooled plasma from human (mixed gender) via equilibrium dialysis in a 96-well plate format. […] The supernatants were analyzed by HPLC-MS/MS. […] The amount measured in the plasma compartment included both free and bound drug, while that on the buffer side represented free drug only; the differences were used to calculate the percentage plasma protein bound. […]
REPORTED_PROPERTY: fraction unbound at 4 h, 10 μM

SMILES_REPRESENTATION	REPORTED_PROPERTY	VALUE_REPORTED
CC[C@@H](NC(=O)N1C(=O)[C@H](Cc2ccnc(N)c2)[C@H]1C(=O)N(C)c1cscn1)c1ccccc1	fraction unbound at 4 h, 10 μM	0.1 to 0.5
CC[C@@H](NC(=O)N1C(=O)[C@H](Cc2ccnc(N)c2)[C@H]1C(=O)N(C)c1ccnn1C)c1cccc(Cl)c1	fraction unbound at 4 h, 10 μM	0.1 to 0.5
CC[C@@H](NC(=O)N1C(=O)[C@H](Cc2ccnc(N)c2)[C@H]1C(=O)N(C)c1ccn(C)n1)C1CCCCC1	fraction unbound at 4 h, 10 μM	0.05 to 0.09
CC[C@@H](NC(=O)N1C(=O)[C@H](Cc2ccnc(N)c2)[C@H]1C(=O)N(C)c1cnn(C)c1)c1ccccc1	fraction unbound at 4 h, 10 μM	0.1 to 0.5

---

PROCEDURE_SUMMARY: Metabolic stability in dog hepatocytes
Assay type: in vitro ADME
RECORDED_CONDITIONS: pooled cryopreserved hepatocytes; beagle dog hepatocytes, 2 μM compound; read-out: Dog Hepatocyte Stability (t1/2)
Some molecules, each annotated with its measured half-life at 2 μM.

SMILES_REPRESENTATION	half-life at 2 μM
CN(C(=O)[C@@H]1[C@@H](Cc2ccnc(N)c2)C(=O)N1C(=O)N[C@@H](C1CCCCC1)C(F)(F)F)c1ccn(C)n1	< 60 min
CC[C@@H](NC(=O)N1C(=O)[C@H](Cc2cc(C)nc(N)c2)[C@H]1C(=O)N(C)c1ccnn1C)c1ccc(C)c(C)c1	61 to 120 min
CC[C@@H](NC(=O)N1C(=O)[C@H](Cc2cc(C)nc(N)c2)[C@H]1C(=O)N(C)c1ccnn1C)c1ccc(F)c(F)c1	121 to 240 min
CC[C@@H](NC(=O)N1C(=O)[C@H](Cc2ccnc(N)c2)[C@H]1C(=O)N(C)c1nccn1C)c1ccccc1	121 to 240 min
CC[C@@H](NC(=O)N1C(=O)[C@H](Cc2ccnc(N)c2)[C@H]1C(=O)N(C)c1cscn1)c1ccccc1	> 240 min
